Origin of the recorded values: paper PMC9655037

- methodDescription: Tissue distribution of TET after a single i.t. administration in normal and LPS-treated mice
- settings: BALB/c, mouse, heart, inhaled or intranasal, 15 mg/kg, MRT, LPS-treated mice; 15 mg/kg i.t.
endpoint: MRT (days)
Please give a number only; it is taken to be in days.

The value of MRT measured for the compound COc1ccc2cc1Oc1ccc(cc1)C[C@H]1c3cc(c(OC)cc3CCN1C)Oc1c(OC)c(OC)cc3c1[C@H](C2)N(C)CC3 [TET, Tetrandrine] turned out to be 26.8

###

- methodDescription: Tissue distribution of TET after a single i.t. administration in normal and LPS-treated mice
- settings: BALB/c, mouse, in vivo, inhaled or intranasal, 15 mg/kg, AUC(0-t), LPS-treated mice; 15 mg/kg i.t.; liver
endpoint: AUC(0-t) (µg·h/mL)
Please give a number only; it is taken to be in µg·h/mL.

The value of AUC(0-t) measured for the molecule `COc1ccc2cc1Oc1ccc(cc1)C[C@H]1c3cc(c(OC)cc3CCN1C)Oc1c(OC)c(OC)cc3c1[C@H](C2)N(C)CC3` turned out to be 5890

###

- methodDescription: Tissue distribution of TET after a single i.t. administration in normal and LPS-treated mice
- settings: BALB/c, mouse, kidney, inhaled or intranasal, 15 mg/kg, Cmax, normal mice; 15 mg/kg i.t.
endpoint: Cmax (µg/mL)
Please give a number only; it is taken to be in µg/mL.

The value of Cmax measured for the molecule `COc1ccc2cc1Oc1ccc(cc1)C[C@H]1c3cc(c(OC)cc3CCN1C)Oc1c(OC)c(OC)cc3c1[C@H](C2)N(C)CC3` turned out to be 107

###

- methodDescription: Metabolic stability of TET in NADPH-supplemented liver microsomes from normal and LPS-induced ALI mice
- Assay type: in vitro ADME, mouse
- settings: mouse, microsomes, pH 7.4, LPS-treated mice liver microsomes, 1.0 µM TET, 0.5 mg/mL protein, 37 °C, read-out: In vitro t1/2
endpoint: half-life at 1 µM (h)
Please give a number only; it is taken to be in h.

The value of half-life at 1 µM measured for the compound COc1ccc2cc1Oc1ccc(cc1)C[C@H]1c3cc(c(OC)cc3CCN1C)Oc1c(OC)c(OC)cc3c1[C@H](C2)N(C)CC3 [TET, Tetrandrine] turned out to be 1.4

###

- methodDescription: Tissue distribution of TET after a single i.t. administration in normal and LPS-treated mice
- settings: BALB/c, mouse, stomach, inhaled or intranasal, 15 mg/kg, Cmax, LPS-treated mice; 15 mg/kg i.t.
endpoint: Cmax (ng/mL)
Please give a number only; it is taken to be in ng/mL.

The value of Cmax measured for the compound COc1ccc2cc1Oc1ccc(cc1)C[C@H]1c3cc(c(OC)cc3CCN1C)Oc1c(OC)c(OC)cc3c1[C@H](C2)N(C)CC3 [TET, Tetrandrine] turned out to be 27200

###

- methodDescription: Tissue distribution of TET after a single i.t. administration in normal and LPS-treated mice
- settings: BALB/c, mouse, brain, inhaled or intranasal, 15 mg/kg, t1/2, LPS-treated mice; 15 mg/kg i.t.
endpoint: half-life (h)
Please give a number only; it is taken to be in h.

The value of half-life measured for the compound `COc1ccc2cc1Oc1ccc(cc1)C[C@H]1c3cc(c(OC)cc3CCN1C)Oc1c(OC)c(OC)cc3c1[C@H](C2)N(C)CC3` turned out to be 92.6
